Sourced from PubChem BioAssay

Experiment: inhibitors of CD8+ T cell-vesicle binding, pilot screen, LFA-1/ICAM-1 modulator project, MLPCN validation set, flow cytometry (AID 2523)
Conditions: 2C mouse CD8+ T cells, at 7 µM, stronger effect = lower value; measured here: CD8+/vesicle+ event percentage
measurementName: double positive events (%)
# output: bare number, implied unit %

O=C(NNC(=O)c1cccs1)c1ccco1 56.8
CCn1c(=N)c(C(=O)NC)cc2c(=O)n3cccc(C)c3nc21 55.2
CC(C)Cc1nc(NCCN2CCOCC2)c(C#N)c2c1COC(C)(C)C2 61.1

QUERY: Fill in the blank: the reported double positive events of "O=C1CCCN1CCCn1cnc2c([nH]c3ccc(F)cc32)c1=O" is ____.
RESULT: 57.6

QUERY: Further, for "Nc1cccc2nc3ccccc3cc12" ?
RESULT: 60.9
